Test system: Staphylococcus aureus
protocol-summary: Antibacterial activity against Staphylococcus aureus SIR2a selected at 2 times MIC of imipenem by microdilution method
Format: functional
quantity: MIC
I'd appreciate it if you wrote the number followed by its unit.

// below: answered molecules
{"molecule": "C[C@@H](O)[C@H]1C(=O)N2C(C(=O)O)=C(SCCNC=N)C[C@H]12 [IMIPENEM ANHYDROUS]", "result": "0.03 µg/mL"}
{"molecule": "C[C@@H](O)[C@H]1C(=O)N2C(C(=O)O)=C(S[C@@H]3CN[C@H](C(=O)N(C)C)C3)[C@H](C)[C@H]12", "result": "0.12 µg/mL"}
{"molecule": "C[C@H]1COc2c(N3CCN(C)CC3)c(F)cc3c(=O)c(C(=O)O)cn1c23.C[C@H]1COc2c(N3CCN(C)CC3)c(F)cc3c(=O)c(C(=O)O)cn1c23.O", "result": "0.06 µg/mL"}

# next molecule below
IN: Query MIC on Staphylococcus aureus for `C[C@@H](O)[C@H]1C(=O)N2C(C(=O)O)=C(S[C@H]3C[C@@H](C(=O)N4CC[C@H](NC(=O)CNC(=N)N)C4)N(C)C3)[C@H](C)[C@H]12`
OUT: 0.25 µg/mL
